MEASURED_ON: 1-phosphatidylinositol 4,5-bisphosphate phosphodiesterase gamma-1 (Homo sapiens)
PROTOCOL_DETAILS: PLC-gamma1 enzyme inhibitors, primary screen, biochemical, fluorescence, purified enzyme (AID 720700)
MEASUREMENT_CONDITIONS: purified PLC-gamma1, fluorogenic substrate, at 12.2 µM, hits give high values
About 3,100 (0.84%) of roughly 370,000 compounds were called active. Only a selection was taken, and actives are over-represented in it overall.
Consider the following molecules; for each one, report its inhibition.
Give bare numbers, in %.

Known inhibition results, listed for orientation:
Cc1ccc(-c2nc(C3CCCN(S(=O)(=O)c4ccc(Br)s4)C3)no2)cc1 (stereo unspecified)    0.61
O=C1NC2(CCCCC2)N=C1c1ccccc1    10.4
COC(=O)C1CN(CC(C)C)CCS(=O)(=O)N1Cc1ccc(C)cc1 (stereo unspecified)    2.01
O=C(CCNC(=O)c1ccc(Br)cc1)Nc1cccc(S(=O)(=O)N2CCCCC2)c1    -1.23
C=CCN1C(=O)[C@@H](CC(=O)NCC2CCCCC2)[C@]2(C(=O)OC)CCCCC=C12    -0.08
O=C1NC2(CCCCCC2)C(=O)N1CCS(=O)(=O)Oc1ccccc1    1.93
COc1cccc(Cn2cc(COC(=O)Nc3ccc(F)cc3)nn2)c1    -1.49
C=CCN1C(=O)[C@@H](CC(=O)N2CCN(C(=O)OCC)CC2)[C@]2(C(=O)OCC)CCCCC/C=C/12    -1.67
C=CCSC(CC)(CC)C(N)=O    11.9
CCC(c1ccc(NC(=O)OC(C)(C)C)cc1)c1cc(OC)cc(OC)c1 (stereo unspecified)    1.5

Task: Give 1-phosphatidylinositol 4,5-bisphosphate phosphodiesterase gamma-1 (Homo sapiens) inhibition for CC(=O)N1CCCN(C2=Nc3ccccc3Sc3ccccc32)CC1
Result: 0.02

---

MEASURED_ON: 1-phosphatidylinositol 4,5-bisphosphate phosphodiesterase gamma-1 (Homo sapiens) (UniProt P19174)
Sequence (P19174 whole entry, looked up): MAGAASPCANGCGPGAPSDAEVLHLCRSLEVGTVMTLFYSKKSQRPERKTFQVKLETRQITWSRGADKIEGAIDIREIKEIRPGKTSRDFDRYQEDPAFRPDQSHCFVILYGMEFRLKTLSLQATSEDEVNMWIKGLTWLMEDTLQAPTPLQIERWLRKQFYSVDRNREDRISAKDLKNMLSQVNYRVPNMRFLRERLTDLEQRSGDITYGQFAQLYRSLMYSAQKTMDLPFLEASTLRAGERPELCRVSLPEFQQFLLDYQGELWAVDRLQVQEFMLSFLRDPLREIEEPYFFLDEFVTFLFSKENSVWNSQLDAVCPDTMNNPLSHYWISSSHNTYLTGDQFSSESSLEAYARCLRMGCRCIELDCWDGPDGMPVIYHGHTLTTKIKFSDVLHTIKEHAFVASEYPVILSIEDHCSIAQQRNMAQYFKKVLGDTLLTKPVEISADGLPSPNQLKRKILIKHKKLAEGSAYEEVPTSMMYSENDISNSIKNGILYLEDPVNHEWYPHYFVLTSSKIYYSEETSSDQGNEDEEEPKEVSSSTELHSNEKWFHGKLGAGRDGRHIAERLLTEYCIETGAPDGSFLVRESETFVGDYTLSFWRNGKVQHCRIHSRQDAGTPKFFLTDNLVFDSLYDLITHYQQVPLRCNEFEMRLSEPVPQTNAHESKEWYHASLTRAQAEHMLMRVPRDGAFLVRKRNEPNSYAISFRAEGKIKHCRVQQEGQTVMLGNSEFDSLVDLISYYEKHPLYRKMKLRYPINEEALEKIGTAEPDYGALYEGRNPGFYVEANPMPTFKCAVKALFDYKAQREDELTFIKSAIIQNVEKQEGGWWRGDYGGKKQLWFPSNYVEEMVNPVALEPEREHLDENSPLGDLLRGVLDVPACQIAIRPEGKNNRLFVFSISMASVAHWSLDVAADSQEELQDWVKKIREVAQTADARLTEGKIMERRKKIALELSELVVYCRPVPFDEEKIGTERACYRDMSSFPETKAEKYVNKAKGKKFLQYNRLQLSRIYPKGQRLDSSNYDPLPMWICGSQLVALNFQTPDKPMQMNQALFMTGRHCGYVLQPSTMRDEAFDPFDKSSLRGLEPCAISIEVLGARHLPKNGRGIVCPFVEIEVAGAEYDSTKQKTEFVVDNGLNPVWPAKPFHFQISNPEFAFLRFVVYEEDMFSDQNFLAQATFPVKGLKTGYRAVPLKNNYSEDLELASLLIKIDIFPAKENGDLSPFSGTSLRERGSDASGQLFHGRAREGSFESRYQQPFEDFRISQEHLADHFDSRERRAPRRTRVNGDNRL
PROTOCOL_DETAILS: PLC-gamma1 enzyme inhibitors, primary screen, biochemical, fluorescence, purified enzyme (AID 720700)
MEASUREMENT_CONDITIONS: purified PLC-gamma1, fluorogenic substrate, at 12.2 µM, hits give high values
Hit rate of the full screen: of about 370,000 compounds, about 3,100 (0.84%) were called active. This is one part of a sample in which actives are shown more often than they occur.
Consider the following molecules; for each one, report its inhibition.
Answers are plain numbers, in %.

Known inhibition results, listed for orientation:
CCn1c(SCC(C)=O)nc2sc3c(c2c1=O)CCCC3    10.1
COC(=O)CN1C(=O)C(O)=C(C(C)=O)C1c1ccc([N+](=O)[O-])cc1 (stereo not drawn)    10.5
COC(=O)[C@]12C[C@H](CC(=O)NCC34CC5CC(CC(C5)C3)C4)C(=O)N(Cc3ccc(Cl)cc3Cl)C1=C[C@H](COCc1ccccc1)O[C@@H]2C    -0.03
Cc1cccc(NC(=O)C[C@H]2CC[C@H]3[C@@H](COc4ccc(NC(=O)Nc5ccccc5)cc4C(=O)N3C)O2)c1    3.76
OC(CNCC1CCCO1)Cn1c2ccc(Br)cc2c2cc(Br)ccc21 (stereo not drawn)    9.98
O=C(CSc1nnc(-c2ccccn2)n1-c1ccc(Cl)cc1)Nc1ccccc1-c1ccccc1    0.96

Dear colleague, could you send me inhibition for each of the items below? Thanks.
1. O=C1CC[C@@]23CCCN2C(=O)CCC[C@H]3[C@H]1Cc1ccccc1
2. CCOc1cc2[nH]c(=S)n(Cc3ccc(C(=O)N4CCN(C)CC4)cc3)c(=O)c2cc1OCC
3. Fc1ccc2nc(COCc3nc4ccc(F)cc4[nH]3)[nH]c2c1
4. NC(=O)C1CCN(C(=O)c2ccc3c(=O)n(Cc4cccc(Br)c4)c(=S)[nH]c3c2)CC1
5. O=C(CNC(=O)c1ccc(Br)o1)NCC1CCCO1 (stereo not drawn)
6. N#Cc1ccc(OC[C@@H](O)CN2CCC(C(O)(c3ccccc3)c3ccccc3)CC2)c(F)c1

Result:
0.07
-0.53
-0.44
4.14
-1.19
0.67

Dear colleague, could you send me inhibition for each of the items below? Thanks.
1. CN(C(=O)c1cccc(NC(=O)Cc2cccc([N+](=O)[O-])c2)c1)C1CCCCC1
2. COC(=O)c1cc(S(=O)(=O)N2CCN(C(=O)C3CCCO3)CC2)cn1C (stereo not drawn)
3. COC(=O)C1=CN(c2ccc(F)c(F)c2)C=C(C(=O)OC)C1c1ccc([N+](=O)[O-])cc1
4. COCCNC(=O)c1ccc(Cn2c(SCC(=O)NCC3CCCO3)nc3ccc(Br)cc3c2=O)cc1 (stereo not drawn)

Result:
8.53
0.5
1.3
0.38

Dear colleague, could you send me inhibition for each of the items below? Thanks.
1. CN(C(=O)c1ccc(NC(=O)Cc2cccc(NC(=O)C3CCN(C(=O)c4ccccc4)CC3)c2)cc1)C1CC1
2. CC(=O)C1=C(O)C(=O)N(c2cccnc2)C1c1ccc([N+](=O)[O-])cc1 (stereo not drawn)
3. COc1ccc(CCNC(=O)COC(=O)Cc2cccc(F)c2)cc1
4. CCOc1ccc(CCNC(=O)COC(=O)CCS(=O)(=O)c2ccc(C)cc2)cc1OCC
5. C[C@@H]1CN([C@H](C)CO)C(=O)CCCn2nncc2CO[C@@H]1CN(C)C(=O)OCc1ccccc1

Result:
[10.7, 11.3, -3.08, 9.85, 5.09]

---

MEASURED_ON: 1-phosphatidylinositol 4,5-bisphosphate phosphodiesterase gamma-1 (Homo sapiens) (UniProt P19174)
PROTOCOL_DETAILS: PLC-gamma1 enzyme inhibitors, primary screen, biochemical, fluorescence, purified enzyme (AID 720700)
MEASUREMENT_CONDITIONS: purified PLC-gamma1, fluorogenic substrate, at 12.2 µM, hits give high values
Screen size: about 370,000 compounds; about 3,100 (0.84%) were called active. Many of the other results were omitted from the sample, so actives are more common in it than they were.
MEASURE_NAME: inhibition (%)
One number for each entry, in %.

Known inhibition results, listed for orientation:
CCOC(=O)[C@]12CCCCC/C=C\1N(Cc1ccc(OC)cc1)C(=O)[C@H]2CC(=O)NCCCN1CCCC1=O    1.96
C=CS(=O)(=O)N(Cc1nnn(Cc2ccccc2)c1Br)[C@H](C(=O)OC)C(C)C    2.5
Cc1ccc(NS(=O)(=O)c2ccc(N/N=C/c3ccccc3OCC(=O)O)c([N+](=O)[O-])c2)c(C)c1    10.8

Dear colleague, could you send me inhibition for each of the items below? Thanks.
1. COc1cccc(/C=C2\CC3(OC(C)=O)CCCN2C3)c1 (stereo not given)
2. Cc1ccc(S(=O)(=O)NC(=O)COc2ccccc2C)cc1
3. CCCC1CCC2(CCCN2CCOC(=O)NCc2ccccc2)CC1 (stereo not given)
4. CCOC(=O)c1csc(NC(=O)C2CCCN(S(=O)(=O)c3ccc(Cl)s3)C2)n1 (stereo not given)
5. CC(C)CSc1nnc(-c2cccnc2)n1Cc1ccccc1
6. O=S1(=O)c2c(cccc2N2CCSCC2)Oc2ccccc2CN1Cc1cn(Cc2ccc(F)cc2)nn1
7. Cc1ccccc1CS(=O)(=O)Cc1ccc(C(=O)Nc2ccc(Cl)cc2)o1

Result:
1. -1.03
2. -1.05
3. 2.03
4. 6.52
5. 0.54
6. -5.24
7. -2.55

---

MEASURED_ON: 1-phosphatidylinositol 4,5-bisphosphate phosphodiesterase gamma-1 (Homo sapiens)
PROTOCOL_DETAILS: PLC-gamma1 enzyme inhibitors, primary screen, biochemical, fluorescence, purified enzyme (AID 720700)
MEASUREMENT_CONDITIONS: purified PLC-gamma1, fluorogenic substrate, at 12.2 µM
Among all 370,000 compounds or so, about 3,100 (0.84%) were called active. Cut-off read from the data, not from the text of the source: active = inhibition above about 9.5%; inactive = the rest. The sample holds actives, similar compounds and a random draw of the others, so the mix is not that of the screen.
Respond only with the outcome that fits, drawn from 1 (active), 0 (inactive)

Consider the worked cases shown below.
COc1ccc(/C(C)=N/N2CCOCC2)c(O)c1    1
Cc1ccc(C2CC(c3cccc(NS(C)(=O)=O)c3)=NN2S(C)(=O)=O)cc1 (stereo unspecified)    0
CCOC(=O)[C@]12CCCCC/C=C\1N(Cc1ccc(OC)cc1)C(=O)[C@H]2CC(=O)N1CCOCC1    0
COc1ccc(C(=O)CC(=O)c2ccc(C)cc2)c(O)c1    0
Cc1cc(C)nc(NC(=S)N2CCN(c3ccc(C(F)(F)F)cn3)CC2)c1    0

Task: Outcome logged for O=C(OCC(=O)N1CCN(c2ccccc2)CC1)c1ccc([N+](=O)[O-])s1 in this assay:
Result: 0

Task: Same lookup for NC1=NN(c2cccc(C(=O)O)c2)C(=O)C1 , please.
Result: 1

Task: Same lookup for CCCC(C)c1nnc(NC(=O)C2CC(=O)N(c3ccc(OCC)cc3)C2)s1 (stereo unspecified) , please.
Result: 0

Task: Same lookup for CN1[C@H](Cc2ccccc2)COc2cccc(N3CCSCC3)c2S1(=O)=O , please.
Result: 0

Task: Same lookup for CCOC(=O)[C@]12CCCC=C1N(CCCOC)C(=O)[C@@H]2CC(=O)N1CCOCC1 , please.
Result: 1

Value source: PubChem BioAssay AID720700
